Molecular target: Tubulin
Test: Inhibition of tubulin (unknown origin) polymerization incubated for 1 hr by fluorescence assay
pIC50: −log10 of the molar value.
Reported Property: pIC50

{"columns": ["Compound Smiles", "Value Reported"],
 "data": [
  ["COc1ccc(/C=C\\c2cc(OC)c(OC)c(OC)c2)cc1NC(=O)c1cn(Cc2ccc(F)cc2)nn1", 5.94],
  ["COc1ccc(Cn2cc(C(=O)Nc3cc(/C=C\\c4cc(OC)c(OC)c(OC)c4)cc(OC)c3OC)nn2)cc1", 6.02]
]}

----------
System: MCF7
Assay: Cytotoxicity against human MCF7 cells after 48 hrs by MTT assay
Assay type: functional, cell-based
Settings: MCF7, 48 h
Reported Property: IC50 (µM)
Give just the number in µM; leave the unit off.

Would you please look over these solved cases?
{"columns": ["Compound Smiles", "Unit", "IC50"],
 "data": [
  ["COc1ccc(/C=C\\c2cc(OC)c(OC)c(OC)c2)c(NC(=O)c2cn(Cc3cc(OC)c(OC)c(OC)c3)nn2)c1O", "µM", 2.4],
  ["COc1ccc(Cn2cc(C(=O)Nc3cc(/C=C\\c4cc(OC)c(OC)c(OC)c4)cc(OC)c3OC)nn2)cc1", "µM", 0.818],
  ["COc1ccc(/C=C\\c2cc(OC)c(OC)c(OC)c2)cc1NC(=O)c1cn(Cc2cccc(Oc3ccccc3)c2)nn1", "µM", 4.19],
  ["COc1ccc(Cn2cc(C(=O)Nc3c(/C=C\\c4cc(OC)c(OC)c(OC)c4)ccc(OC)c3O)nn2)cc1", "µM", 2.62],
  ["COc1cc(/C=C\\c2cc(OC)c(OC)c(OC)c2)cc(NC(=O)c2cn(Cc3ccc(F)cc3)nn2)c1OC", "µM", 0.897]
]}

Measured IC50 (MCF7), entry `COc1ccc(/C=C\c2cc(OC)c(OC)c(OC)c2)c(NC(=O)c2cn(Cc3cccc(Oc4ccccc4)c3)nn2)c1O` : 4.26

Measured IC50 (MCF7), entry `COc1cc(/C=C\c2cc(OC)c(OC)c(OC)c2)cc(NC(=O)c2cn(Cc3cc(OC)c(OC)c(OC)c3)nn2)c1OC` : 1.38
